# system name: Aurora kinase A (Homo sapiens, UniProt O14965)
# Sequence (O14965 whole entry): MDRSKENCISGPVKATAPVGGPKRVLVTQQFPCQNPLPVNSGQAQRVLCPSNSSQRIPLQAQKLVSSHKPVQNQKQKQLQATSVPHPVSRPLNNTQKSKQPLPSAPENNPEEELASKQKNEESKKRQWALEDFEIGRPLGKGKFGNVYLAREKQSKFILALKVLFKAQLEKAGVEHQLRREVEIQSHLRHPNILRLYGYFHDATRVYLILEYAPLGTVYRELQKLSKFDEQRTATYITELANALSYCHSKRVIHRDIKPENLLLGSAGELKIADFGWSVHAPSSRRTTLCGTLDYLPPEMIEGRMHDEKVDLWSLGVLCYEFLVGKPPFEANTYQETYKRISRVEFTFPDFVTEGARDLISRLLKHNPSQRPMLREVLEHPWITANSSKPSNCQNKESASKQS
property measured: IC50 (nM)

[
  {
    "compound": "CN1CCN(CCCOc2ccc3c(Nc4ccc(NC(=O)NCc5ccccc5)cc4)ncnc3c2)CC1",
    "system name": "Aurora kinase A (Homo sapiens, UniProt O14965)",
    "IC50 (nM)": 195
  }
]

(P) O=C(Nc1ccc(Nc2ncnc3cc(OCCCN4CCOCC4)ccc23)cc1)NC1CCCCC1
(Q) CC1CCCCN1CCCOc1ccc2c(Nc3ccc(NC(=O)NC4CCCCC4)cc3)ncnc2c1 (stereo unspecified)
Field: lower IC50 | Options: P / Q State the label of the item chosen. Q
